These entries and their values trace back to patent US8921397B2.

Molecular target: human 5-HT2A receptor (Homo sapiens (Human))
Sequence (P28223 whole entry): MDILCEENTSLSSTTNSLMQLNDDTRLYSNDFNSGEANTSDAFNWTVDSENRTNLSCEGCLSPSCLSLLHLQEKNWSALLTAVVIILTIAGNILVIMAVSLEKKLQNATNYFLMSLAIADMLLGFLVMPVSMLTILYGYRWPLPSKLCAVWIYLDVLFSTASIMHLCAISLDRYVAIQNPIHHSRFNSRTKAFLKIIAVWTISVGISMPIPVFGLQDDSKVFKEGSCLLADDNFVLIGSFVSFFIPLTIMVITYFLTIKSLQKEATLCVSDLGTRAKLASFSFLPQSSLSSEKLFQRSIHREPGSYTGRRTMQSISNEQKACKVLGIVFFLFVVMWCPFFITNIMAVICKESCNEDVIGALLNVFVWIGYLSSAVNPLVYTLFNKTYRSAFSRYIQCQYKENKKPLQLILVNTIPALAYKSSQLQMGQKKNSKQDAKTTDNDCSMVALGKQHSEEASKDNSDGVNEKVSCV
READOUT_NAME: Ki
Please answer in the form of a number followed by its unit of measurement.

compound=O=C(N[C@H]1CC[C@H](CCN2CCC(c3coc4ccccc34)CC2)CC1)C1CCC1 data_value="5.56 nM"
compound=O=C(N[C@H]1CC[C@H](CCN2CCC(c3coc4ccccc34)CC2)CC1)c1ccc(-n2cccn2)cc1 data_value="22.2 nM"
compound=O=C(N[C@H]1CC[C@H](CCN2CCC(c3coc4ccccc34)CC2)CC1)c1ccc2c(c1)OCO2 data_value="8.78 nM"
compound=O=C(N[C@H]1CC[C@H](CCN2CCC(c3coc4ccccc34)CC2)CC1)c1ccc(-c2ccccc2)cc1 data_value="5.21 nM"
compound=CC(C)Cc1ccc(C(=O)N[C@H]2CC[C@H](CCN3CCC(c4coc5ccccc45)CC3)CC2)cc1 data_value="2.69 nM"
compound=CCc1ccc(C(=O)N[C@H]2CC[C@H](CCN3CCC(c4coc5ccccc45)CC3)CC2)cc1 data_value="2.53 nM"

Given the entry O=C(N[C@H]1CC[C@H](CCN2CCC(c3coc4ccccc34)CC2)CC1)c1ccc(F)cc1 , what Ki was observed with human 5-HT2A receptor (Homo sapiens (Human))?
5.66 nM

Given the entry N#Cc1ccc(C(=O)N[C@H]2CC[C@H](CCN3CCC(c4coc5ccccc45)CC3)CC2)cc1 , what Ki was observed with human 5-HT2A receptor (Homo sapiens (Human))?
5.89 nM

Given the entry CC(C)(O)C(=O)N[C@H]1CC[C@H](CCN2CCC(c3coc4ccccc34)CC2)CC1 , what Ki was observed with human 5-HT2A receptor (Homo sapiens (Human))?
2.25 nM

Given the entry CCC(=O)N[C@H]1CC[C@H](CCN2CCC(c3coc4ccccc34)CC2)CC1 , what Ki was observed with human 5-HT2A receptor (Homo sapiens (Human))?
4.52 nM

Given the entry COC(CC(=O)N[C@H]1CC[C@H](CCN2CCC(c3coc4ccccc34)CC2)CC1)OC , what Ki was observed with human 5-HT2A receptor (Homo sapiens (Human))?
5.94 nM

Given the entry CN(C)C(=O)CCC(=O)N[C@H]1CC[C@H](CCN2CCC(c3coc4ccccc34)CC2)CC1 , what Ki was observed with human 5-HT2A receptor (Homo sapiens (Human))?
7.8 nM

Given the entry O=C(N[C@H]1CC[C@H](CCN2CCC(c3coc4ccccc34)CC2)CC1)c1cnc(N2CCOCC2)cn1 , what Ki was observed with human 5-HT2A receptor (Homo sapiens (Human))?
8.2 nM

Given the entry CC(C)CCC(=O)N[C@H]1CC[C@H](CCN2CCC(c3coc4ccccc34)CC2)CC1 , what Ki was observed with human 5-HT2A receptor (Homo sapiens (Human))?
13.1 nM

Given the entry Cc1ccc(C(=O)N[C@H]2CC[C@H](CCN3CCC(c4coc5ccccc45)CC3)CC2)cn1 , what Ki was observed with human 5-HT2A receptor (Homo sapiens (Human))?
5.11 nM

Given the entry O=C(CC1CCCO1)N[C@H]1CC[C@H](CCN2CCC(c3coc4ccccc34)CC2)CC1 (stereo partly shown) , what Ki was observed with human 5-HT2A receptor (Homo sapiens (Human))?
5.43 nM

Given the entry CC(C)(O)CC(=O)N[C@H]1CC[C@H](CCN2CCC(c3coc4ccccc34)CC2)CC1 , what Ki was observed with human 5-HT2A receptor (Homo sapiens (Human))?
5.1 nM

Given the entry CCCC(=O)N[C@H]1CC[C@H](CCN2CCC(c3coc4ccccc34)CC2)CC1 , what Ki was observed with human 5-HT2A receptor (Homo sapiens (Human))?
5.53 nM
